# Test system: Malme-3M
# assay.notes: NCI tumour cell line growth inhibition, 48 h
Activity calls are given as the source filed them. Rule as the data show it: active = GI50 up to about 1.1 µM and inactive = higher.
measured.parameter: GI50

CCCCn1cnnc1NS(=O)(=O)c1cc(C)c(Cl)cc1SCC(=O)O; > 10 µM (inactive)
CC(/C=C/c1ccccc1)=N\NC(=S)N/N=C(C)/C=C/c1ccccc1; 10 µM (inactive)
CNc1cc(Cl)ccc1C(=O)N1CCC[C@H]1CO; > 100 µM (inactive)
O=C(O)c1ccc(C=C2Sc3ccccc3S2)cc1; 84.7 µM (inactive)
Oc1ccc2c(c1)c1c(n2CCN2CCOCC2)-c2ccccc2CC1; 19.6 µM (inactive)

// each compound listed below needs its GI50
1. C=C[C@]1(C)CC[C@]2(C)C(CC[C@@]3(C)C2C[C@H](O)[C@H](O)[C@@]3(C)O)C1 (some centres undefined)
2. CC1(C2CCC3(C)OC3C2)CO1 (centres undefined)

Result:
["> 100 µM (inactive)", "> 100 µM (inactive)"]

// each compound listed below needs its GI50
1. NC(=S)N/N=C1\C(=O)N(CCc2ccccc2)C(=O)C1C(=O)NCCc1ccccc1 (centres undefined)
2. O=[N+]([O-])c1ccc(-c2nc3cc(Cl)ccc3[nH]2)cc1

Result:
> 100 µM (inactive)
> 100 µM (inactive)

* * *

# Test system: SK-MEL-5
# assay.notes: NCI tumour cell line growth inhibition, 48 h
Active and inactive are the calls of the source. Rule as the data show it: active = GI50 up to about 1.1 µM and inactive = higher.
Your reply should match one of these outcome classes. active, inactive

Some solved cases for reference:
O=c1cc(CO)oc2c3c(cc(O)c12)OCC(COC1OC(CO)C(O)C(O)C1O)=CC3 (stereo unspecified); inactive
N#Cc1c(-c2ccccc2)nc(-c2ccccc2)sc1=S; inactive
c1ccc2c(c1)[nH]c1c[nH]c3c4cccnc4nc-3c12; inactive
CC(/C=C/c1ccccc1)=N\NC(=S)N/N=C(C)/C=C/c1ccccc1; inactive
NC(=O)c1nc[nH]c1/N=N/SCC(N)C(=O)O (stereo unspecified); inactive

Query: Outcome? O/N=C1/Nc2cc(Cl)ccc2C(=S)N2CSCC12 (stereo unspecified)
Result: inactive

Query: Outcome? Cc1c[nH]c(C(=O)O)c1-c1ccc2c(-c3ccccc3)nc3ccccc3n12
Result: inactive

Query: Outcome? CC[C@@]1(O)C(=O)OCc2c1cc1n(c2=O)Cc2c-1nc1ccccc1c2CC[Si](C)(C)C
Result: active

Query: Outcome? BrC(c1cccc2ccccc12)c1cccc2ccccc12
Result: inactive

Query: Outcome? CN(C)CCCNC(=O)N/N=C/c1ccc(O)cc1
Result: inactive

Query: Outcome? COc1ccc2[nH]c3c(C)c4cnccc4c(C)c3c2c1
Result: inactive

* * *

# Test system: HOP-18
# assay.notes: NCI tumour cell line growth inhibition, 48 h
Activity calls are given as the source filed them. No stated cut-off is given here; in the data, active = GI50 up to about 1.1 µM and inactive = higher.
Your reply should match one of these outcome classes. active, inactive

Some solved cases for reference:
CCOC(=O)C(=O)NCCCN1CCOCC1; inactive
COC(=O)C1=C(c2cc(OC)c(OC)c(OC)c2)OC(c2ccc(OC)c(OC)c2)C1 (stereo unspecified); inactive
Cc1ccc(/C=C2\CCCCC2=O)cc1; inactive

Query: Outcome? Cc1cc(Cl)ccc1NC(=O)C1C(=O)N(c2ccc(Cl)cc2C)C(=O)/C1=N\N (stereo unspecified)
Result: inactive

Query: Outcome? C/C(CCn1[nH]c(=O)ccc1=O)=N\NC(=O)C(=O)NN
Result: inactive

Query: Outcome? COc1ccc2c(c1)[n+]([O-])c(/C(C)=N/NC(=O)CC#N)c[n+]2[O-]
Result: inactive

Query: Outcome? N=C(Nc1nc(-c2ccccn2)cc2ccccc12)c1ccccn1
Result: active

Query: Outcome? COC(=O)C(=O)C(C(=O)C(=O)Nc1cc([N+](=O)[O-])ccc1C#N)c1nc2ccccc2nc1O (stereo unspecified)
Result: inactive

Query: Outcome? Cc1cccc(C(=O)c2cccc3ccccc23)c1C(=O)O
Result: inactive

Query: Outcome? COc1cc(Cl)c2c3c(c(C(=O)c4ccccc4)oc13)CCC2
Result: inactive

Query: Outcome? O=c1cc(CO)oc2c3c(cc(O)c12)OCC(COC1OC(CO)C(O)C(O)C1O)=CC3 (stereo unspecified)
Result: inactive

* * *

# System: SR
# assay.notes: NCI tumour cell line growth inhibition, 48 h
Active and inactive are the calls of the source. Cut-off read from the data, not from the text of the source: active = GI50 up to about 1.1 µM and inactive = higher.
Your reply should match one of these outcome classes. 1.0 for active, 0.0 for inactive

Some solved cases for reference:
CN1C(=O)C2CCCC(=O)N2c2cccnc21 (stereo not given); 0.0
BrC(c1cccc2ccccc12)c1cccc2ccccc12; 0.0
COc1ccc(NCc2cnc3nc(N)nc(N)c3c2C)cc1; 1.0
O=C1C([P+](c2ccccc2)(c2ccccc2)c2ccccc2)=C([O-])C(=Cc2ccc(Cl)c(Cl)c2)C([O-])=C1[P+](c1ccccc1)(c1ccccc1)c1ccccc1; 1.0

Turning now to a further compound:
Query: Outcome? CCOC(=O)CN(c1ccccc1)c1nc(=[N+](C)C)ss1
Result: 1.0

* * *

# Test system: RPMI-8226
# assay.notes: NCI tumour cell line growth inhibition, 48 h
The source made the active and inactive calls. Rule as the data show it: active = GI50 up to about 1.1 µM and inactive = higher.
Your reply should match one of these outcome classes. active, inactive

CO/C(=N\N=C\c1cc(OC)ccc1OC)c1ccncc1; inactive
Cc1ccccc1/N=N/c1ccc(N/N=C2/CCCNC2=O)c(C)c1; inactive
CC(C)OC(=O)[C@H]1ON2O[C@H](O[C@@H]3CCCC[C@H]3c3ccccc3)C([Si](C)(C)c3ccccc3)[C@H]3OC(=O)[C@@H]1C32 (stereo partly specified); inactive
N=C(Nc1nc(-c2ccccn2)cc2ccccc12)c1ccccn1; active
O=c1[nH]/c(=C/c2cccs2)c(=O)[nH]/c1=C/c1ccc(OCc2ccccc2)cn1; active

Turning now to a further compound:
Query: Outcome? CC1(C2CCC3(C)OC3C2)CO1 (stereo unspecified)
Result: inactive

* * *

# Tested on: COLO 205
# assay.notes: NCI tumour cell line growth inhibition, 48 h
Calls of active or inactive are those of the source. Rule as the data show it: active = GI50 up to about 1.1 µM and inactive = higher.
Your reply should match one of these outcome classes. true (1) (active), false (0) (inactive)

CC[C@@]1(O)C(=O)OCc2c1cc1n(c2=O)Cc2c-1nc1ccccc1c2CC[Si](C)(C)C [COSITECAN]; true (1)
O=C(O)CCC(NC(=O)c1ccc(CNc2nc3cc(C(F)(F)F)ccc3nc2C(=O)O)cc1)C(=O)O (stereo not given); false (0)
Oc1ccc2ccccc2c1/N=N/c1ccsc1; false (0)
CC1(C)C2CCC(CN)(C2)C1N (stereo not given); false (0)
C=CCn1c(=O)n(CC=C)c(=O)n(CC=C)c1=O; false (0)

Query: Outcome? NNC1=N/C(=C\c2ccccc2O)C(=O)N1
Result: false (0)

Query: Outcome? C=Cc1ccccc1C1C(C(=O)OCC)=C(C)N=C2OC(C(=O)OC)C(=O)N21 (stereo not given)
Result: false (0)

Query: Outcome? COc1ccc(Nc2nc3c([nH]2)c(=O)n(C)c(=O)n3C)cc1
Result: false (0)

Query: Outcome? CNc1cc(Cl)ccc1C(=O)N1CCC[C@H]1CO
Result: false (0)

Query: Outcome? COC(=O)C1=C(OC(=O)/C(=C/c2ccccc2)c2ccc(OC)cc2)C(C(=O)OC)[C@@]2(O)[C@@H](C(=O)OC)[C@H](C)C[C@@H]1[C@@H]2C(=O)OC (stereo not given in full)
Result: false (0)

* * *

# Tested on: HT-29
# assay.notes: NCI tumour cell line growth inhibition, 48 h
Active and inactive are the calls of the source. Cut-off read from the data, not from the text of the source: active = GI50 up to about 1.1 µM and inactive = higher. Where a SMILES comes first, the peptide text is derived from it. The star is where a group is joined. Cbz = O=C(OCc1ccccc1)*; Boc = CC(C)(C)OC(=O)*; Bn = c1ccc(C*)cc1
Consider the following compounds; for each one, report its GI50.

Worked examples, 5 compounds total:
CC(CCc1ccc2c(c1)c(N)c1ccc(N)cc1[n+]2[O-])CC(C)(C)C (centres undefined); 1.22 µM (inactive)
O=c1c2cc3c(=O)n(CCc4ccccc4CO)c(=O)c3cc2c(=O)n1CCc1ccccc1CO; > 100 µM (inactive)
CC(C)(C)OC(=O)NC(Cc1ccc(OCc2ccccc2)cc1)C(=O)NC(CCCCNC(=O)OCc1ccccc1)C(=O)O (centres undefined) (Boc-Tyr(Bn)-Lys(Cbz)-OH; configuration not given here); 62.1 µM (inactive)
O/N=C1/Nc2cc(Cl)ccc2C(=S)N2CSCC12 (centres undefined); > 100 µM (inactive)
CCCCC(=O)c1ccc2ccccc2c1O; > 100 µM (inactive)

// each compound listed below needs its GI50
1. O=C(O)c1ccc(C=C2Sc3ccccc3S2)cc1
2. c1cc(-c2ccc(-c3ccc(C4=NCCCN4)cc3)o2)ccc1C1=NCCCN1
3. CO/C(=N\N=C\c1cccc(C(F)(F)F)c1)c1ccncc1
4. Cc1nn(C(=O)c2ccc(Cl)cc2)c2c1C(c1ccc([N+](=O)[O-])cc1)SC(=N)N2 (centres undefined)

Result:
43.5 µM (inactive)
76.4 µM (inactive)
4.62 µM (inactive)
> 10 µM (inactive)
